Molecular target: IL-17A/F (Homo sapiens, UniProt Q16552+Q96PD4)
Construct: purchased R&D Systems
Sequence (Q16552 24-155): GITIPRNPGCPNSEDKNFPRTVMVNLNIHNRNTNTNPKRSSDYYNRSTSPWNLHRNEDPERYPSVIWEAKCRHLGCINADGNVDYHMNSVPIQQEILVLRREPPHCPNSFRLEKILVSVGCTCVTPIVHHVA
Sequence (Q96PD4 31-163): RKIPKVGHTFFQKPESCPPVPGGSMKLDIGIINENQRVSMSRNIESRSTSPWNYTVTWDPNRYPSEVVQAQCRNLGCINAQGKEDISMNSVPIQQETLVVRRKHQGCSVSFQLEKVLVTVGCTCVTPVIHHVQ
Assay: IL-17A/F HEK-Blue cell assay (SEAP reporter)
Format: cell-based
Details: HEK-Blue IL-17A reporter cells, IL17A/F 5 ng/mL, 20 hours, SEAP read at A630; read-out: HEK-Blue IL17AF (IC50 for IL-17A/F inhibition)
Recorded Endpoint: IC50

Examples with their reported IC50 follow.
Cn1nccc1C(=O)N[C@H](c1cn2nc(C[C@H]3C[C@@H](C(F)(F)F)CNC3=O)c(C3CCOCC3)nc2n1)C1CCC(F)(F)CC1 ... 100 to 1000 nM
CCn1nccc1C(=O)N[C@H](c1cn2nc(C[C@H]3C[C@@H](C(F)(F)F)CNC3=O)c(C3(C)CCOC3)nc2n1)C1CCC(F)(F)CC1 (single isomer, unassigned) [Compound 166] ... 100 to 1000 nM
CCn1nccc1C(=O)N[C@H](c1cn2nc(C[C@H]3C[C@@H](C(F)(F)F)CNC3=O)c(CN3CCOCC3C)nc2n1)C1CCC(F)(F)CC1 (single isomer, unassigned) ... 100 to 1000 nM
CC(C)n1nccc1C(=O)N[C@H](c1cn2nc(C[C@H]3C[C@@H](C(F)(F)F)CNC3=O)c(C3CCOCC3)nc2n1)C1CCC(F)(F)CC1 ... 100 to 1000 nM

Fill in the blank: the reported IC50 of `CCn1nccc1C(=O)N[C@H](c1cn2nc(C[C@H]3C[C@@H](C(F)(F)F)CNC3=O)c(C3CCOCC3)nc2n1)C1CC2(C1)CC(F)(F)C2` is ____.
> 1000 nM
